tested system: human recombinant serotonin (5-Hydroxytryptamine) 5-HT6 receptor (Homo sapiens, UniProt P50406)
Construct: expressed in transfected cells; host or cells: human HeLa cells
Sequence (P50406 whole entry): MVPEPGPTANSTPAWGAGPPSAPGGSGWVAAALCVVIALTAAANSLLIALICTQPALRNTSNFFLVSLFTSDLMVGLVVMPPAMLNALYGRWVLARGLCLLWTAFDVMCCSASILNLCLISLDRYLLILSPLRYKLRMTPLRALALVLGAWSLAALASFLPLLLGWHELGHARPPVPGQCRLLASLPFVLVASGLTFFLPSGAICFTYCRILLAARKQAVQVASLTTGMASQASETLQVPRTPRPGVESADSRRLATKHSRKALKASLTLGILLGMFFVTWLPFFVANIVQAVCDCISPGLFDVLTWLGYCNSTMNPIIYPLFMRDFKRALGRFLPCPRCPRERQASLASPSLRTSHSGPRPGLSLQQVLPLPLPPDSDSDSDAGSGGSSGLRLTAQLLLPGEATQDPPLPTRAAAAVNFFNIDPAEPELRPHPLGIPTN
measurement description: Serotonin 5-HT6 radioligand binding ([3H]LSD)
condition: compounds screened at 1 μM; read-out: Inhibition of ligand binding, Ser. 5-HT6 (percent inhibition of specific binding)
measured quantity: inhibition at 1 µM (%)

- compound: "CN1CCc2c(c3cc(Cl)ccc3n2CCc2noc(-c3ccccc3)n2)C1 [Compound C4-6]"
  measured quantity: "inhibition at 1 µM"
  unit of measure: "%"
  meas value: 105
- compound: "CN1CCc2c(c3ccccc3n2CCc2noc(-c3ccccc3)n2)C1 [Compound C4-1]"
  measured quantity: "inhibition at 1 µM"
  unit of measure: "%"
  meas value: 51
- compound: "CN1CCc2c(c3ccncc3n2CCc2ccccn2)C1 [Compound 481]"
  measured quantity: "inhibition at 1 µM"
  unit of measure: "%"
  meas value: 14
- compound: "Cc1ccc(CCn2c3c(c4cc(I)ccc42)CN(C)CC3)cn1 [Compound 485]"
  measured quantity: "inhibition at 1 µM"
  unit of measure: "%"
  meas value: 94
- compound: "CN1CCc2c(c3cc(I)ccc3n2CC(=O)N2CCCCC2)C1 [Compound 486]"
  measured quantity: "inhibition at 1 µM"
  unit of measure: "%"
  meas value: 14
